// % Phosphatase Activity (compared to DMSO) PRL-3 lookup, one value per entry
Target: recombinant PRL-3 (Homo sapiens)
Construct: 6xHis (N, cleaved yes); made in house; host or cells: E. coli One Shot BL21 Star
Assay text: In vitro phosphatase assay (DiFMUP hydrolysis), PRL-3; also: test concentration or dose not given here
Type: biochemical
Experimental context: FDA-approved drug screen; compared to DMSO
Starred links: 1 amine or outer side, 2 acyl side, 3 side chain; linkers in the order of their positions; H or OH if unused. Positions of bridges follow the written chain, without caps; N, C: chain ends. Non-standard residues stand in square brackets, D forms with d. Residues, ends and D or L forms follow the SMILES beside them. *: point of attachment. hTyr(3S-OH,4S-OH,3'-OSO3H) = N[C@H](C(=O)O)[C@H](O)[C@@H](O)c1ccc(O)c(OS(=O)(=O)O)c1; Orn(4R-OH,5R-OH) = O=C([C@H](C[C@@H](O)[C@@H](O)N[*:3])N[*:1])[*:2]; Pro(3S-OH,4S-Me) = C[C@H]1CN[C@H](C(=O)O)[C@H]1O; X1 = CCCCCOc1ccc(-c2cc(-c3ccc(C(=O)*)cc3)no2)cc1; Gln(3R-OH) = NC(=O)C[C@@H](O)[C@H](N)C(=O)O; Hyp = O=C(O)[C@@H]1C[C@@H](O)CN1
Lab book: enter the figure in %, no units written.

Molecule: C=CCNC(N)=S [Allylthiourea]
Target: recombinant PRL-3 (Homo sapiens)
Observed result: 86
//
Molecule: Cn1cnc2c(F)c(Nc3ccc(Br)cc3Cl)c(C(=O)NOCCO)cc21 [Selumetinib (AZD6244)]
Target: recombinant PRL-3 (Homo sapiens)
Observed result: 87
//
Molecule: O=c1c(-c2ccc(O)cc2)coc2cc(O)cc(O)c12 [Genistein]
Target: recombinant PRL-3 (Homo sapiens)
Observed result: 64

// query % Phosphatase Activity (compared to DMSO) PRL-3 value for entry CN1CCC(=C2c3ccccc3CCc3cccnc32)CC1 [Azatadine dimaleate]
84

Moving on to CN1CCN2c3ncccc3Cc3ccccc3C2C1 (centres unmarked) [Mirtazapine]
98

And for [I-].[K+] [Potassium Iodide] ?
87

Input O=C(C1CCCCC1)N1CC(=O)N2CCc3ccccc3C2C1 (centres unmarked) [Praziquantel]
73

Can you check CC1=NN(c2ccc(C)c(C)c2)C(=O)/C1=N\Nc1cccc(-c2cccc(C(=O)O)c2)c1O [Eltrombopag Olamine] next?
35

Further, for Cc1cccc(C)c1OCC(=O)N[C@@H](Cc1ccccc1)[C@@H](O)C[C@H](Cc1ccccc1)NC(=O)[C@H](C(C)C)N1CCCNC1=O [Lopinavir] ?
62

Now the same for CCCCCOc1ccc(-c2cc(-c3ccc(C(=O)N[C@H]4C[C@@H](O)[C@@H](O)NC(=O)[C@@H]5[C@@H](O)[C@@H](C)CN5C(=O)[C@H]([C@H](O)CC(N)=O)NC(=O)[C@H]([C@H](O)[C@@H](O)c5ccc(O)c(OS(=O)(=O)[O-])c5)NC(=O)[C@@H]5C[C@@H](O)CN5C(=O)[C@H]([C@@H](C)O)NC4=O)cc3)no2)cc1.[Na+] [Micafungin Sodium] (X1-[Orn(4R-OH,5R-OH)]T[Hyp][hTyr(3S-OH,4S-OH,3'-OSO3H)][Gln(3R-OH)][Pro(3S-OH,4S-Me)]; lactam 1-C)
49

Now consider Nc1ccccc1NC(=O)c1ccc(CNC(=O)OCc2cccnc2)cc1 [Entinostat (MS-275)] and answer again.
80

// same read-out, input: C[C@]1(O)C[C@@H](c2nc(-c3ccc4ccc(-c5ccccc5)nc4c3)c3c(N)nccn32)C1 [OSI-906 (Linsitinib)]
77

Here is the next molecule: CNS(=O)(=O)C[C@H]1CC[C@H](N(C)c2ncnc3[nH]ccc23)CC1 [Oclacitinib]
80

Record: CN1CC[C@H](c2c(O)cc(O)c3c(=O)cc(-c4ccccc4Cl)oc23)[C@H](O)C1 [Flavopiridol (Alvocidib)]
68

----------
A collection of compounds and their measured % Phosphatase Activity (compared to DMSO) PRL-3
Target: recombinant PRL-3 (Homo sapiens, UniProt O75365)
Construct: 6xHis (N, cleaved yes); made in house; host or cells: E. coli One Shot BL21 Star
Sequence (O75365 whole entry): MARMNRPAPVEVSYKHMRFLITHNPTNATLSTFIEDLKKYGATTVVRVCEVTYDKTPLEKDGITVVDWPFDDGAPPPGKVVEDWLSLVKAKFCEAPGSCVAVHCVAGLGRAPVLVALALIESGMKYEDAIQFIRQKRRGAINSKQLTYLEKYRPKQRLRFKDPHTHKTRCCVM
Assay text: In vitro phosphatase assay (DiFMUP hydrolysis), PRL-3; also: test concentration or dose not given here
Format: biochemical
Experimental context: FDA-approved drug screen; compared to DMSO
Counter-ions that a name gives are not always drawn.
Report as a plain number; the unit % is understood.

Compound: COc1ccc(C(=O)NCc2ccc(OCCN(C)C)cc2)cc1OC.Cl [Itopride hydrochloride]
Observed result: 80
//
Compound: C[C@H]1C[C@H]2[C@@H]3CCC4=CC(=O)C=C[C@]4(C)[C@@]3(F)[C@@H](O)C[C@]2(C)[C@@]1(O)C(=O)CO
Observed result: 72
//
Compound: CCN1CCCC1CNC(=O)c1cc(S(=O)(=O)CC)c(N)cc1OC (centres unmarked) [Amisulpride]
Observed result: 74
//
Compound: C=CCc1cc(OC)c(O)c(C(=O)NCCO)c1 [Alibendol]
Observed result: 81
//
Compound: CCN1CC(CCN2CCOCC2)C(c2ccccc2)(c2ccccc2)C1=O.Cl (centres unmarked) [Doxapram HCl]
Observed result: 92

Which measured % Phosphatase Activity (compared to DMSO) PRL-3 value corresponds to CCC(C)(C)c1ccc(CC(C)CN2C[C@@H](C)O[C@@H](C)C2)cc1 (some centres unmarked) [Amorolfine HCl] ?
78

What do we get for CN(C)C/C=C/C(=O)Nc1cc2c(Nc3ccc(F)c(Cl)c3)ncnc2cc1O[C@H]1CCOC1.O=C(O)/C=C\C(=O)O.O=C(O)/C=C\C(=O)O [Afatinib (BIBW2992) Dimaleate] ?
101

Same read-out for `Cc1ncc([N+](=O)[O-])n1CCO` ?
87

----------
Target: recombinant PRL-2 (Homo sapiens)
Construct: 6xHis (N, cleaved yes); made in house; host or cells: E. coli One Shot BL21 Star
Sequence (Q12974 1-167): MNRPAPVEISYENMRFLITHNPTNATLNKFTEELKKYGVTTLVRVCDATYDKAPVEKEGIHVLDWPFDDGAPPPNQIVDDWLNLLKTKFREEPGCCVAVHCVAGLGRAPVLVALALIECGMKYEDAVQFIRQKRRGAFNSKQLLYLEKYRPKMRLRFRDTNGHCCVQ
Assay text: In vitro phosphatase assay (DiFMUP hydrolysis), PRL-2;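 also: PRL-2 activity read as DiFMUP hydrolysis after 20 min at room temperature with drug, enzyme first pre-reduced at 4 °C for 20 min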
Type: biochemical
Experimental context: FDA-approved drug screen; compared to DMSO
Counter-ions that a name gives are not always drawn.
Catalogue of % Phosphatase Activity (compared to DMSO) PRL-2 readings, one per entry.
Please state the value followed by its unit.

Please review the entries below; each comes with its answer.
Molecule: Cc1c(-c2ccccc2)oc2c(C(=O)OCCN3CCCCC3)cccc2c1=O [Flavoxate HCl]
Target: recombinant PRL-2 (Homo sapiens)
Observed result: 109%
--
Molecule: CC[C@@H]([C@H](C)O)n1ncn(-c2ccc(N3CCN(c4ccc(OC[C@@H]5CO[C@@](Cn6cncn6)(c6ccc(F)cc6F)C5)cc4)CC3)cc2)c1=O
Target: recombinant PRL-2 (Homo sapiens)
Observed result: 99%
--
Molecule: Cc1ccc(-c2cc(C(F)(F)F)nn2-c2ccc(S(N)(=O)=O)cc2)cc1
Target: recombinant PRL-2 (Homo sapiens)
Observed result: 81%
--
Molecule: C=CCN1CC[C@]23c4c5ccc(O)c4O[C@H]2C(=O)CC[C@@]3(O)[C@H]1C5 [Naloxone HCl]
Target: recombinant PRL-2 (Homo sapiens)
Observed result: 123%
--
Molecule: COc1ccc(-c2nc3ccc(C4=NNC(=O)CC4C)cc3[nH]2)cc1 (centres unmarked)
Target: recombinant PRL-2 (Homo sapiens)
Observed result: 118%
--
Molecule: CC1(C)O[C@@H]2C[C@H]3[C@@H]4CCC5=CC(=O)C=C[C@]5(C)[C@H]4[C@@H](O)C[C@]3(C)[C@]2(C(=O)CO)O1 [Desonide]
Target: recombinant PRL-2 (Homo sapiens)
Observed result: 97%

Given `Cc1cccc(Nc2ccccc2C(=O)O)c1C` , state its recorded % Phosphatase Activity (compared to DMSO) PRL-2.
107%

How about `COc1ccc(/C=C\c2cc(OC)c(OC)c(OC)c2)cc1OP(=O)([O-])[O-].[Na+].[Na+]` ?
76%

Item: C[n+]1ccccc1/C=N/O.[Cl-] [Pralidoxime (chloride)]
91%

What do you get for CC(=O)NC1CCSC1=O (centres unmarked) ?
106%

Also check CC1CCc2c(N3CCC(O)CC3)c(F)cc3c(=O)c(C(=O)O)cn1c23 (centres unmarked)
108%

----------
Target: recombinant PRL-1 (Homo sapiens, UniProt Q93096)
Construct: 6xHis (N, cleaved yes); made in house; host or cells: E. coli One Shot BL21 Star
Sequence (Q93096 whole entry): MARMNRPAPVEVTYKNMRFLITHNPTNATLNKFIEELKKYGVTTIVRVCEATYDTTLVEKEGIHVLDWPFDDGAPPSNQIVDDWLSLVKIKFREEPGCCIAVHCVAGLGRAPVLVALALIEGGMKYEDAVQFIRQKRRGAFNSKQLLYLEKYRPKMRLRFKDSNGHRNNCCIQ
Assay text: In vitro phosphatase assay (DiFMUP hydrolysis), PRL-1; also: test concentration or dose not given here
Format: biochemical
Experimental context: FDA-approved drug screen; compared to DMSO
Structures can show the parent of a compound that is named as a salt.
Value type: % Phosphatase Activity (compared to DMSO) PRL-1 (%)
Express the result in % but write the number alone.

Example cases with answers are listed next.
Compound: CC(=O)Nc1ccccc1 [Acetanilide]
Observed result: 110
--
Compound: CCCCc1nc(Cl)c(CO)n1Cc1ccc(-c2ccccc2-c2nnn[n-]2)cc1.[K+]
Observed result: 94
--
Compound: OC[C@H]1OC(O)[C@H](O)[C@@H](O)[C@@H]1O (some centres unmarked)
Observed result: 106
--
Compound: CCC1=C(C)CN(C(=O)NCCc2ccc(S(=O)(=O)NC(=O)N[C@H]3CC[C@H](C)CC3)cc2)C1=O [Glimepiride]
Observed result: 84

As a next step, examine the compound that follows.
Kindly state the measured % Phosphatase Activity (compared to DMSO) PRL-1 obtained for O=C1CN2Cc3c(ccc(Cl)c3Cl)N=C2N1 [Anagrelide HCl] with recombinant PRL-1 (Homo sapiens, UniProt Q93096).
93
